pIC50: −log10 of the molar value.
pIC50 for ROCK2 (Homo sapiens, UniProt O75116) - collated from the literature.
Label t when pIC50 >= 8; otherwise f.

Qu. Quick check: does "CNC(=O)c1cc2ccc(-c3nccc(Nc4ccc5[nH]ncc5c4)n3)cc2s1" have pIC50 greater than or equal to 8?
Ans. f

Qu. Quick check: does "COc1cc(N2CCC3(CCN(C(=O)c4ccc(N5CCN(CC6CCCC6)CC5)cc4)CC3)C2=O)ccc1-c1cn[nH]c1" have pIC50 greater than or equal to 8?
Ans. t

Qu. Quick check: does "COc1nc(N2CC3(CCN(C(C)=O)CC3)N(Cc3cccc(F)c3C)C2=O)ccc1-c1cn[nH]c1" have pIC50 greater than or equal to 8?
Ans. t

Qu. Quick check: does N#CCc1cccc(C(=O)N[C@H]2C[C@]3(C2)C[C@H](Oc2nc4c(cc2C(N)=O)COCC4)C3)c1 (stereo partly shown) have pIC50 greater than or equal to 8?
Ans. f

Qu. Quick check: does CC(C)CN1C(=O)C(=O)N([C@H]2C[C@@]3(C[C@H](Oc4ncccc4C(N)=O)C3)C2)C1=O (stereo partly shown) have pIC50 greater than or equal to 8?
Ans. f

Qu. Quick check: does "C[C@@H](NC(=O)c1ccc(-c2ccncc2)cc1)c1cccc(C(=O)NCC2CCC(F)(F)CC2)c1" have pIC50 greater than or equal to 8?
Ans. t
